Listed here: items and their measured self-cleavage.
B1: LINE1-mini (parent)
chain: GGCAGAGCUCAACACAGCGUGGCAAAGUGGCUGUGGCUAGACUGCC

- Variants of: B1
- assayOverview: self-cleavage, relative activity (ratio to wild type); higher = more cleavage; in vitro, sequencing; the parent is a self-cleaving ribozyme
Response field accepts a number only; no unit should be typed.

mutation: A24C A26C
self-cleavage: 0.28
//
mutation: C37G G44U
self-cleavage: 0.07
//
mutation: A25G G40C
self-cleavage: 0.06

Ask: self-cleavage lookup needed for A6C U34C , thanks.
Result: 0.11

Ask: Now the same for A12U G21U
Result: 0.34

Ask: What about this variant? C3G G29C
Result: 0.43
